target: Recombinant human cathepsin A (Homo sapiens (Human), UniProt P10619); test: Cathepsin A inhibitory activity (cleavage of Bodipy FL-labeled bradykinin, microfluidic capillary electrophoresis); assay type: biochemical; conditions: read-out: Activity [μM] (IC50, cathepsin A inhibitory activity)
Sequence (P10619 29-326): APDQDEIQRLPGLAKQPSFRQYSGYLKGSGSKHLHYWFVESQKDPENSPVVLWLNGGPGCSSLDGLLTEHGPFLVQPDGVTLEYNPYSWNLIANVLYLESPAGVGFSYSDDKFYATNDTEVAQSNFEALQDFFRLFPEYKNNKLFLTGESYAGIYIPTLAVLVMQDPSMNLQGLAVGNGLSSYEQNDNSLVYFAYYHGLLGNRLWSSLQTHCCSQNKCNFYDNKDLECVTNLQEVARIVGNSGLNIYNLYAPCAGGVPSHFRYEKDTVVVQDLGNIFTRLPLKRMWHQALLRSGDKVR
Sequence (P10619 327-480): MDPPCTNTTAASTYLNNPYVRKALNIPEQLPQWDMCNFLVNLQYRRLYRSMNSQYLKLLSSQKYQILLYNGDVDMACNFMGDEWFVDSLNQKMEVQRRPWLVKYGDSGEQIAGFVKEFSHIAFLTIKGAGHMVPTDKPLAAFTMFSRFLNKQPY
Readout label: IC50 (µM)

# count of solved cases: 3
[
  {
    "Mol smiles": "COc1ccc(C(=O)N[C@@H](CC(=O)O)c2ccccc2C)nc1-c1cccc(C(C)=O)c1",
    "Readout label": "IC50",
    "Readout units": "µM",
    "Result value": 2.42
  },
  {
    "Mol smiles": "Cc1ccccc1[C@H](CC(=O)O)NC(=O)c1ccnc(-c2cccc(Cl)c2Cl)c1",
    "Readout label": "IC50",
    "Readout units": "µM",
    "Result value": 3.7
  },
  {
    "Mol smiles": "COc1ccc(C(=O)N[C@@H](CC(=O)O)c2ccccc2F)nc1-c1ccc(Cl)c(F)c1",
    "Readout label": "IC50",
    "Readout units": "µM",
    "Result value": 3.55
  }
]

1. Cc1ccccc1[C@H](CC(=O)O)NC(=O)c1cccc(-c2cccc(-c3ccccc3)c2)n1
2. Cc1ccccc1[C@H](CC(=O)O)NC(=O)c1cccc(-c2ccc(C#N)cc2)n1
query: Looking at recorded values for IC50, does 1 or 2 come in lower? When you have decided, please share the label of that item.
result: 2
